# TARGET DESC: Aminopeptidase N (Plasmodium falciparum (isolate 3D7))
# TEST DESCRIPTION: malaria alanyl aminopeptidase activity blockers – biochemical, fluorogenic H-Leu-NHMec substrate, 1536-well (AID 1445);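 further: plate controls were DMSO full reaction for no effect and no enzyme background for full effect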
# PROTOCOL CONDITIONS: recombinant M1AAP, H-Leu-NHMec fluorogenic kinetic assay; at 30 µM, hits give high values unless noted
Out of some 220,000 compounds screened, about 910 (0.41%) were called active. The sample as a whole holds a higher share of actives than the screen did. Potency and affinity values are given separately.

{"MOLECULE": "Cc1cccc(-n2cc(CN(C)Cc3nccn3C)c(-c3cccc(F)c3)n2)c1", "RESULT UNIT": "%", "inhibition": 4.73}
{"MOLECULE": "COc1ccc2nc(SCC(=O)N3CCCCCC3)c(C#N)cc2c1", "RESULT UNIT": "%", "inhibition": 6.08}
{"MOLECULE": "O=C(CNC(=O)c1ccncc1)N/N=C/c1cc(Br)ccc1OCc1ccccc1", "RESULT UNIT": "%", "inhibition": 5.07}
{"MOLECULE": "COCc1[nH]nc2c1C(c1ccsc1)C(C#N)=C(N)O2 (stereo not given)", "RESULT UNIT": "%", "inhibition": 1.23}
{"MOLECULE": "Cc1cnc(C(=O)Nc2cccc3cccnc23)cn1", "RESULT UNIT": "%", "inhibition": 24.3}
{"MOLECULE": "O=S(=O)(Cc1ccccc1)Nc1ccc(Br)cn1", "RESULT UNIT": "%", "inhibition": 1.35}
{"MOLECULE": "CP(C)(=O)CCP(=O)(c1ccccc1)c1ccccc1", "RESULT UNIT": "%", "inhibition": 2.48}
{"MOLECULE": "C=CCOc1ccc2ccccc2c1CNc1ncn[nH]1", "RESULT UNIT": "%", "inhibition": 0.63}
{"MOLECULE": "Cc1cc2ccccc2nc1SCC(=O)N1CCCC1", "RESULT UNIT": "%", "inhibition": 11.8}
{"MOLECULE": "COc1ccc(C(C(=O)NC2CCCCC2)N(C(=O)c2sc(C)nc2C)c2ccccc2)cc1 (stereo not given)", "RESULT UNIT": "%", "inhibition": -2.38}
{"MOLECULE": "O=C1Nc2ccccc2C1=Nc1ccc(S(=O)(=O)Nc2nccs2)cc1", "RESULT UNIT": "%", "inhibition": 9.76}
{"MOLECULE": "Cc1ccc(NS(=O)(=O)Cc2ccccc2)nc1", "RESULT UNIT": "%", "inhibition": 5.38}
{"MOLECULE": "COc1ccccc1/C=C/C(=O)NCC(=O)N/N=C/c1cc(Br)ccc1OC", "RESULT UNIT": "%", "inhibition": 22.4}
{"MOLECULE": "COc1ccc(NC(=O)c2cnc(C)cn2)c2ncccc12", "RESULT UNIT": "%", "inhibition": 1.63}
{"MOLECULE": "CC(C)CC(N=Cc1c(O)c2ccccc2oc1=O)C(=O)O (stereo not given)", "RESULT UNIT": "%", "inhibition": 16.5}
{"MOLECULE": "O=c1oc(-c2ccccc2NS(=O)(=O)c2ccccc2)nc2ccccc12", "RESULT UNIT": "%", "inhibition": 9.41}
{"MOLECULE": "O=C(NN1CCOCC1)c1sc2cccc(F)c2c1Cl", "RESULT UNIT": "%", "inhibition": 4.71}
{"MOLECULE": "CCOc1ccccc1N1CSC2=C(C#N)C(c3c(OC)ccc4ccccc34)CC(=O)N2C1 (stereo not given)", "RESULT UNIT": "%", "inhibition": 18.2}
{"MOLECULE": "CCC(C)c1ccc2oc(-c3ccc(NC(=O)Cn4cnc5c(=O)n(C)c(=O)n(C)c54)cc3)nc2c1 (stereo not given)", "RESULT UNIT": "%", "inhibition": 17.4}
{"MOLECULE": "CSc1ncccc1C(=O)OCC(=O)N(C)C", "RESULT UNIT": "%", "inhibition": 7.72}
